From: ChEMBL document CHEMBL5131562

assay-text: Metabolic stability in mouse liver microsomes assessed as half life
Assay type: ADME, Microsome
Reported values of half-life for individual entries
recorded-metric: half-life (min)

[[record]]
molecule = "O=c1ccc2ccc(F)c3c2n1CC3C[C@H]1OC[C@H](NCc2cc3c(nn2)OCCS3)CO1 (some centres undefined)"
reading = 21.9

[[record]]
molecule = "O=C1CSc2ccc(CN[C@H]3CO[C@H](CC4Cn5c(=O)ccc6ncc(F)c4c65)OC3)nc2N1 (some centres undefined)"
reading = 36.4

[[record]]
molecule = "COc1ccc2ncc(F)c(C[C@H](O)[C@H]3OC[C@H](NC(=O)c4ccc5c(n4)NC(=O)CS5)CO3)c2n1"
reading = 5.42

[[record]]
molecule = "O=C1COc2ccc(CN[C@H]3CO[C@H](CC4Cn5c(=O)ccc6ccc(F)c4c65)OC3)nc2N1 (some centres undefined)"
reading = 18.4


* * *

Test system: Staphylococcus aureus
assay-text: Antibacterial activity against Staphylococcus aureus 3527 by CLSI method
Format: functional
recorded-metric: MIC

[[record]]
molecule = "O=c1ccc2ncc(F)c3c2n1CC3C[C@H]1OC[C@H](NCc2ccc3c(c2)OCCO3)CO1 (some centres not stated)"
recorded_metric = "MIC"
reading = "0.25 µg/mL"

[[record]]
molecule = "O=c1ccc2ncc(F)c3c2n1CC3C[C@H]1OC[C@H](NCc2cc3c(nn2)OCCS3)CO1 (some centres not stated)"
recorded_metric = "MIC"
reading = "4 µg/mL"

[[record]]
molecule = "O=c1ccc2ccc(F)c3c2n1CC3C[C@H]1OC[C@H](NCc2ccc3c(c2)OCCO3)CO1 (some centres not stated)"
recorded_metric = "MIC"
reading = "0.25 µg/mL"

[[record]]
molecule = "O=c1ccc2ncc(F)c3c2n1CC3C[C@H]1OC[C@H](NCc2cc3c(cn2)OCCC3)CO1 (some centres not stated)"
recorded_metric = "MIC"
reading = "1 µg/mL"

[[record]]
molecule = "O=c1ccc2ncc(=O)n3c2n1CC3CN1CCC(NCc2cc3c(cn2)OCCC3)CC1 (racemic)"
recorded_metric = "MIC"
reading = "0.25 µg/mL"

[[record]]
molecule = "COc1ccc2ncc(F)c(C[C@H](O)[C@H]3OC[C@H](NC(=O)c4ccc5c(n4)NC(=O)CO5)CO3)c2n1"
recorded_metric = "MIC"
reading = "≤ 0.06 µg/mL"

[[record]]
molecule = "O=C1CSc2ccc(CN[C@H]3CO[C@H](CC4Cn5c(=O)ccc6ncc(F)c4c65)OC3)nc2N1 (some centres not stated)"
recorded_metric = "MIC"
reading = "1 µg/mL"


* * *

assay-text: Cytotoxicity activity against human K562 cells assessed as inhibition of cellular growth
Type: toxicity, cell-based
recorded-metric: IC50 (µM)

[[record]]
compound = "O=c1ccc2ncc(F)c3c2n1CC3C[C@H]1OC[C@H](NCc2cc3c(nn2)OCCS3)CO1 (some centres undefined)"
reading = 98

[[record]]
compound = "O=C1COc2ccc(CN[C@H]3CO[C@H](CC4Cn5c(=O)ccc6ccc(F)c4c65)OC3)nc2N1 (some centres undefined)"
reading = 101

[[record]]
compound = "O=c1ccc2ccc(F)c3c2n1CC3C[C@H]1OC[C@H](NCc2cc3c(cn2)OCCC3)CO1 (some centres undefined)"
reading = 109

[[record]]
compound = "O=C1CSc2ccc(CN[C@H]3CO[C@H](CC4Cn5c(=O)ccc6ncc(F)c4c65)OC3)nc2N1 (some centres undefined)"
reading = 81.7


* * *

tgt: Topoisomerase IV (Staphylococcus aureus, UniProt P0C1S7+P0C1U9)
assay-text: Inhibition of Staphylococcus aureus DNA topoisomerase 4 decatenation activity using kDNA as substrate incubated for 10 to 20 min by ethidium bromide/bromophenol blue staining based agarose gel electrophoresis analysis
Format: protein-complex assay
recorded-metric: IC50 (nM)

[[record]]
compound = "COc1ccc2ncc(F)c(C[C@H](O)[C@H]3OC[C@H](NC(=O)c4ccc5c(n4)NC(=O)CS5)CO3)c2n1"
tgt = "Topoisomerase IV (Staphylococcus aureus, UniProt P0C1S7+P0C1U9)"
recorded_metric = "IC50"
units_of_measure = "nM"
reading = 420

[[record]]
compound = "O=C1CSc2ccc(CN[C@H]3CO[C@H](CC4Cn5c(=O)ccc6ncc(F)c4c65)OC3)nc2N1 (some centres not stated)"
tgt = "Topoisomerase IV (Staphylococcus aureus, UniProt P0C1S7+P0C1U9)"
recorded_metric = "IC50"
units_of_measure = "nM"
reading = 2100

[[record]]
compound = "O=c1ccc2ccc(F)c3c2n1CC3C[C@H]1OC[C@H](NCc2cc3c(cn2)OCCC3)CO1 (some centres not stated)"
tgt = "Topoisomerase IV (Staphylococcus aureus, UniProt P0C1S7+P0C1U9)"
recorded_metric = "IC50"
units_of_measure = "nM"
reading = 2900

[[record]]
compound = "O=c1ccc2ncc(F)c3c2n1CC3C[C@H]1OC[C@H](NCc2cc3c(cn2)OCCC3)CO1 (some centres not stated)"
tgt = "Topoisomerase IV (Staphylococcus aureus, UniProt P0C1S7+P0C1U9)"
recorded_metric = "IC50"
units_of_measure = "nM"
reading = 1600

[[record]]
compound = "O=C1COc2ccc(CN[C@H]3CO[C@H](CC4Cn5c(=O)ccc6ccc(F)c4c65)OC3)nc2N1 (some centres not stated)"
tgt = "Topoisomerase IV (Staphylococcus aureus, UniProt P0C1S7+P0C1U9)"
recorded_metric = "IC50"
units_of_measure = "nM"
reading = 1300

[[record]]
compound = "O=c1ccc2ccc(F)c3c2n1CC3C[C@H]1OC[C@H](NCc2cc3c(nn2)OCCO3)CO1 (some centres not stated)"
tgt = "Topoisomerase IV (Staphylococcus aureus, UniProt P0C1S7+P0C1U9)"
recorded_metric = "IC50"
units_of_measure = "nM"
reading = 9700

[[record]]
compound = "O=C1COc2ccc(CN[C@H]3CO[C@H](CC4Cn5c(=O)ccc6ncc(F)c4c65)OC3)nc2N1 (some centres not stated)"
tgt = "Topoisomerase IV (Staphylococcus aureus, UniProt P0C1S7+P0C1U9)"
recorded_metric = "IC50"
units_of_measure = "nM"
reading = 1400


* * *

tgt: Voltage-gated inwardly rectifying potassium channel KCNH2 (Homo sapiens)
Reported values of IC50 for individual entries
recorded-metric: IC50

[[record]]
compound = "COc1ccc2ncc(F)c(C[C@H](O)[C@H]3OC[C@H](NC(=O)c4ccc5c(n4)NC(=O)CO5)CO3)c2n1"
recorded_metric = "IC50"
reading = "> 100 µM"

[[record]]
compound = "COc1ccc2ncc(F)c(C[C@H](O)[C@H]3OC[C@H](NC(=O)c4ccc5c(n4)NC(=O)CS5)CO3)c2n1"
recorded_metric = "IC50"
reading = "> 100 µM"

[[record]]
compound = "O=c1ccc2ccc(F)c3c2n1CC3C[C@H]1OC[C@H](NCc2cc3c(nn2)OCCO3)CO1 (some centres undefined)"
recorded_metric = "IC50"
reading = "> 200 µM"

[[record]]
compound = "O=c1ccc2ncc(F)c3c2n1CC3C[C@H]1OC[C@H](NCc2cc3c(nn2)OCCS3)CO1 (some centres undefined)"
recorded_metric = "IC50"
reading = "> 200 µM"

